For each record, write down the corresponding Binding Assay (ELISA signal).
- Tested On: T1, CD38 (human, UniProt P28907 43-300, limits assumed)
- T1 construct: also called cluster of differentiation 38; cyclic ADP ribose hydrolase
- Assay Notes: ELISA; larger values represent binding
Where no end group is shown, it is not given here. [ ]: non-standard residue; d: D form. Bip = N[C@@H](Cc1ccc(-c2ccccc2)cc1)C(=O)O; Ahp(2) = CCCCC[C@H](N)C(=O)O
Give only the figure.

Identify measured Binding Assay (ELISA signal) associated with AR[Ahp(2)]YHDGAL[Bip][Ahp(2)]DC (not fully specified (N-terminus, bridges); printed as A R Ahp Y H D G A L Bph Ahp D C, Alanine variant at position 8) [A R Ahp Y H D G A L Bph Ahp D C]
0.3

Identify measured Binding Assay (ELISA signal) associated with AR[Ahp(2)]AHDGVL[Bip][Ahp(2)]DC (not fully specified (N-terminus, bridges); printed as A R Ahp A H D G V L Bph Ahp D C, Alanine variant at position 4) [A R Ahp A H D G V L Bph Ahp D C]
0.11

Identify measured Binding Assay (ELISA signal) associated with AA[Ahp(2)]YHDGVL[Bip][Ahp(2)]DC (not fully specified (N-terminus, bridges); printed as A A Ahp Y H D G V L Bph Ahp D C) [A A Ahp Y H D G V L Bph Ahp D C]
0.6

Identify measured Binding Assay (ELISA signal) associated with AR[Ahp(2)]YHDAVL[Bip][Ahp(2)]DC (not fully specified (N-terminus, bridges); printed as A R Ahp Y H D A V L Bph Ahp D C, Alanine variant at position 7) [A R Ahp Y H D A V L Bph Ahp D C]
1.49

Identify measured Binding Assay (ELISA signal) associated with AR[Ahp(2)]YHDGVLA[Ahp(2)]DC (not fully specified (N-terminus, bridges); printed as A R Ahp Y H D G V L A Ahp D C, Alanine variant at position 10) [A R Ahp Y H D G V L A Ahp D C]
0.09

Identify measured Binding Assay (ELISA signal) associated with AR[Ahp(2)]YHDGVL[Bip]ADC (not fully specified (N-terminus, bridges); printed as A R Ahp Y H D G V L Bph A D C, Alanine variant at position 11) [A R Ahp Y H D G V L Bph A D C]
0.2

Identify measured Binding Assay (ELISA signal) associated with AR[Ahp(2)]YHDGVA[Bip][Ahp(2)]DC (not fully specified (N-terminus, bridges); printed as A R Ahp Y H D G V A Bph Ahp D C, Alanine variant at position 9) [A R Ahp Y H D G V A Bph Ahp D C]
0.08

Identify measured Binding Assay (ELISA signal) associated with AR[Ahp(2)]YHAGVL[Bip][Ahp(2)]DC (not fully specified (N-terminus, bridges); printed as A R Ahp Y H A G V L Bph Ahp D C, Alanine variant at position 6) [A R Ahp Y H A G V L Bph Ahp D C]
0.93

Value source: patent US20230028880A1
